Below is a list of entries, each paired with its recorded AIRE transcriptional activation functional score value.
B1: library; numbered along this chain (parent)
chain: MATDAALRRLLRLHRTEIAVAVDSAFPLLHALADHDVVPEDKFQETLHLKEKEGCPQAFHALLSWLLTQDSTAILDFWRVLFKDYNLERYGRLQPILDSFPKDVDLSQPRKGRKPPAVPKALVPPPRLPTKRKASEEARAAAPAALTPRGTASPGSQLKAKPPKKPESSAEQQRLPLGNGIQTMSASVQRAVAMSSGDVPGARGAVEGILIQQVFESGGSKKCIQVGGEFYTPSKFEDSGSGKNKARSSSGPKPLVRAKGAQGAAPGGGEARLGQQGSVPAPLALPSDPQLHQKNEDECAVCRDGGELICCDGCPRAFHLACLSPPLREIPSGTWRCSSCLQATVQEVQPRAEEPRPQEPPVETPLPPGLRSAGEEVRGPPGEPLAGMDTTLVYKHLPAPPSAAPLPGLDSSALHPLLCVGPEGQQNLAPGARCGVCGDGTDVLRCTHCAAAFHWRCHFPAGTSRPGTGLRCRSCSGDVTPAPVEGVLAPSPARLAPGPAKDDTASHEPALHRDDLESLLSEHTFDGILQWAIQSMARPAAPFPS

# Variants of: B1
# protocol text: AIRE transcriptional activation functional score (insulin promoter-GFP; nonsense median 0, synonymous median 1) (normalised score); higher = higher AIRE activity (more reporter activation)
# run conditions: with insulin promoter-GFP reporter in HEK293
Respond with the number and no other words.

These recorded examples may help you get a feel for the data.
Ask | Value lookup for AIRE transcriptional activation functional score; key = Q262G
Reply | 1.33

Ask | Which AIRE transcriptional activation functional score is reported for this variant? D502F
Reply | 1.35

Ask | Which AIRE transcriptional activation functional score is listed for T391A ?
Reply | 1.09

Ask | For the variant shown here, H35M , give the reported AIRE transcriptional activation functional score.
Reply | -0.719

Ask | # get_value(readout='AIRE transcriptional activation functional score', item= C449Y )
Reply | 0.106

Ask | Look up AIRE transcriptional activation functional score for this variant: A321R
Reply | 0.843

Ask | Dear colleague, I am looking for the recorded AIRE transcriptional activation functional score of the following variant: P56K
Reply | 1.48

Ask | Recorded AIRE transcriptional activation functional score of R127L , please.
Reply | 0.607

Continuing:
Ask | Which AIRE transcriptional activation functional score is listed for P361F ?
Reply | 1.18

Ask | Suppose we examine the variant S250F ; what AIRE transcriptional activation functional score value has been reported?
Reply | 1.13

Ask | Query (variant): S64K ; field requested: AIRE transcriptional activation functional score
Reply | -0.37

Ask | GET /values?readout=AIRE transcriptional activation functional score&item= L29Q
Reply | 0.317

Ask | Entry under review: S234Y . Reported AIRE transcriptional activation functional score?
Reply | 1.11

Ask | Would you mind telling me what AIRE transcriptional activation functional score value was observed for G228T ?
Reply | 1.57

Ask | # lookup: AIRE transcriptional activation functional score of V301K
Reply | 1.09

Ask | For the variant L47W , what AIRE transcriptional activation functional score is on record?
Reply | -0.717

Ask | Please report the recorded AIRE transcriptional activation functional score for L291W .
Reply | 0.706

This collection of values is drawn from the supplement of paper PMC12667976.
